target: ATM (phospho-ATM Ser1981) in SN38 treated HT-29 cells (Homo sapiens (Human))
Sequence (Q13315 whole entry, looked up): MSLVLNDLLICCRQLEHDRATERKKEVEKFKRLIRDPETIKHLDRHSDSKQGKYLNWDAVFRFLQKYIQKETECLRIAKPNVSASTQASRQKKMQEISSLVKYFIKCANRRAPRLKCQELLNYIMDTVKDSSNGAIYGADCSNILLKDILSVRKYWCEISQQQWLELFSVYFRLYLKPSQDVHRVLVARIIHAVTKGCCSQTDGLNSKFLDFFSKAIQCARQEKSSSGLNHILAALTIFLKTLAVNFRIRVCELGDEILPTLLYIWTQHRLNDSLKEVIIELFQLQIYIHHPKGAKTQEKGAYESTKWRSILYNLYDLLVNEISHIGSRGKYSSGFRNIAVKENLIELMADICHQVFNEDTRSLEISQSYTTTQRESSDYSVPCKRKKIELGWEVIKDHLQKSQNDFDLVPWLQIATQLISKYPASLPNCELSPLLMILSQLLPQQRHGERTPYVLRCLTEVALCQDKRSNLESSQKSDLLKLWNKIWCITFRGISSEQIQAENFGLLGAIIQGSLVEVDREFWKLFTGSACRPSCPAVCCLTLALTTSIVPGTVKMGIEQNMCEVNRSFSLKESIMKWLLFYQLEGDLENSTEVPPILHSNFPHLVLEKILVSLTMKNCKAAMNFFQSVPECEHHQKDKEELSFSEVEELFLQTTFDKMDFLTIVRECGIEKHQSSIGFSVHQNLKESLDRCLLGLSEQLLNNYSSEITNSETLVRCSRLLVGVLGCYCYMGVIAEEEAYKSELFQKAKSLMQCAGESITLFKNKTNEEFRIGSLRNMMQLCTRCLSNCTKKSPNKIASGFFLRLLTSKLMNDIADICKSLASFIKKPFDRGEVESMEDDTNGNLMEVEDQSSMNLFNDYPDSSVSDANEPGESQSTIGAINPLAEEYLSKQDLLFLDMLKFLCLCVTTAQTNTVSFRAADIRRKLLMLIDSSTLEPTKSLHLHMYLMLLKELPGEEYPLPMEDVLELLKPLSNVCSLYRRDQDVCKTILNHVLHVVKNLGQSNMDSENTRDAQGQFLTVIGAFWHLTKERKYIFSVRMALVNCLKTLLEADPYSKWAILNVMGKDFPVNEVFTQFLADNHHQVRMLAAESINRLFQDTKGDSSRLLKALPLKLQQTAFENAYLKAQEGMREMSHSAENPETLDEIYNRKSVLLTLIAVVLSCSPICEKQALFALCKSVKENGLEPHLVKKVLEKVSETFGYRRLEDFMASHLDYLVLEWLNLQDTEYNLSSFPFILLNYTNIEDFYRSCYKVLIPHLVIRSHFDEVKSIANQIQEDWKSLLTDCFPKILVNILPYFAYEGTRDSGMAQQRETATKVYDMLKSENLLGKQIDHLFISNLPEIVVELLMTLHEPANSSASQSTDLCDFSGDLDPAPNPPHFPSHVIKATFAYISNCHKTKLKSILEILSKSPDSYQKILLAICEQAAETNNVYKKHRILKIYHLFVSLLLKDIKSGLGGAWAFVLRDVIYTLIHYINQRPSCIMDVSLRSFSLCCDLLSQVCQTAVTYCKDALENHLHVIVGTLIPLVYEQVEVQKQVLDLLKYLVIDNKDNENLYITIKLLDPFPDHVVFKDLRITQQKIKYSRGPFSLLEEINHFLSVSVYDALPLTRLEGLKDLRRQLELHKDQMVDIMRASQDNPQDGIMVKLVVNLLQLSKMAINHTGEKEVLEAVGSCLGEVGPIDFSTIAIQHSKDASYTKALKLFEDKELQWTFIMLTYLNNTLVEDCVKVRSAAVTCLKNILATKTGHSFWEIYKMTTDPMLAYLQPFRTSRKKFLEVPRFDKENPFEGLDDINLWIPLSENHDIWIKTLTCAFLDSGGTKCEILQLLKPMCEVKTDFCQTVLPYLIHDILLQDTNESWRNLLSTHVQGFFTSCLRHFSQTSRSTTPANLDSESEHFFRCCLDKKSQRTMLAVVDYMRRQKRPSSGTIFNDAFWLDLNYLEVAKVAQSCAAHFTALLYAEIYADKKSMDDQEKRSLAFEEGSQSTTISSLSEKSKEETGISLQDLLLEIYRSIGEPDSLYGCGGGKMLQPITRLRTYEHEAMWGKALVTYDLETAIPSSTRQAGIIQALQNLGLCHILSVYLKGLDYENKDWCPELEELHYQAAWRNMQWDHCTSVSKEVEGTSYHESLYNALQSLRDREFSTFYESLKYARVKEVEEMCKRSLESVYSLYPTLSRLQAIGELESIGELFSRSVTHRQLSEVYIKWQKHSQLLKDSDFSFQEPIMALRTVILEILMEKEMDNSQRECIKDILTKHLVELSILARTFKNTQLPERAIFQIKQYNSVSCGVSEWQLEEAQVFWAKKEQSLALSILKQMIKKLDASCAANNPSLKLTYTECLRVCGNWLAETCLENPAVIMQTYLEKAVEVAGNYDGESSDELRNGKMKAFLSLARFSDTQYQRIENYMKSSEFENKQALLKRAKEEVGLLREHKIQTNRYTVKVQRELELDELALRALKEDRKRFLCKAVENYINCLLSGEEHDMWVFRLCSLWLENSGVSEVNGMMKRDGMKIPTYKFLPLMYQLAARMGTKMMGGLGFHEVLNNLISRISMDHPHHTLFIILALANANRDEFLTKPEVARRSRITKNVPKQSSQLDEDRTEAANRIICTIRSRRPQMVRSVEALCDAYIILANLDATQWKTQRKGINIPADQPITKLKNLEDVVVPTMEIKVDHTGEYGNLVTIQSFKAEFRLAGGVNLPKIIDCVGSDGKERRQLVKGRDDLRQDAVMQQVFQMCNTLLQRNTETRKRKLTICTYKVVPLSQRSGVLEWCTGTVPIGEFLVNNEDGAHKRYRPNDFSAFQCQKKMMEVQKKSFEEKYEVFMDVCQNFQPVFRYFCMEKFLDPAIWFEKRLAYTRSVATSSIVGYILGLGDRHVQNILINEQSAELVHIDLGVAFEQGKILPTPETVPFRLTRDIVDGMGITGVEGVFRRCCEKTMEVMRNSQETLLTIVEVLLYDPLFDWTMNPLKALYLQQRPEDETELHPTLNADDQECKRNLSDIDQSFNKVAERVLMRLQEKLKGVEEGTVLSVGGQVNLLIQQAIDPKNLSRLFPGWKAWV
protocol summary: cell-based
experimental context: HT-29 cells, SN-38; read-out: SN-38 HT-29 cellular IC50
pIC50: −log10 of the molar value.
Use Condition met when the recorded pIC50 is no lower than 7; use Condition not met when it is lower.

Check out these entries, answers already filled in.
1. CC(C)n1c(=O)n(C)c2nnc3ccc(-c4ccc([C@@H](C)OCCN5CCC6(CC6)C5)nc4)cc3c21 | Condition met
2. CO[C@H]1C[C@@H](n2c(=O)n(C)c3nnc4ccc(-c5ccc(COCCN6CC7CC7C6)nc5)cc4c32)C1 (stereo partly shown) | Condition not met

Form field: pIC50 at least 7? Entry: CO[C@@H]1CCN(CCO[C@H](C)c2ccc(-c3ccc4nnc5c(c4c3)n(C(C)C)c(=O)n5C)cn2)C1
Condition met

Tell me whether pIC50 is at least 7 here: CC(C)n1c(=O)n(C)c2nnc3cc(F)c(-c4ccc(COCCN5CCC(F)CC5)nc4)cc3c21 [Ref compd 1, reference compound]
Condition not met

State whether the measured pIC50 reaches 7, counting equality as reaching it, for CC(C)n1c(=O)n(C)c2nnc3ccc(-c4ccc(COCCN5CCC(C)(C)CC5)nc4)cc3c21
Condition met

Decide: pIC50 of CO[C@H]1C[C@H](n2c(=O)n(C)c3nnc4ccc(-c5ccc([C@@H](C)OCCN6CCCC6)nc5)cc4c32)C1 >= 7?
Condition met
